Cited source: PubChem BioAssay AID652190

- system tested: Inward rectifier potassium channel 2 (Mus musculus) (UniProt P35561)
- Sequence (P35561 whole entry, looked up): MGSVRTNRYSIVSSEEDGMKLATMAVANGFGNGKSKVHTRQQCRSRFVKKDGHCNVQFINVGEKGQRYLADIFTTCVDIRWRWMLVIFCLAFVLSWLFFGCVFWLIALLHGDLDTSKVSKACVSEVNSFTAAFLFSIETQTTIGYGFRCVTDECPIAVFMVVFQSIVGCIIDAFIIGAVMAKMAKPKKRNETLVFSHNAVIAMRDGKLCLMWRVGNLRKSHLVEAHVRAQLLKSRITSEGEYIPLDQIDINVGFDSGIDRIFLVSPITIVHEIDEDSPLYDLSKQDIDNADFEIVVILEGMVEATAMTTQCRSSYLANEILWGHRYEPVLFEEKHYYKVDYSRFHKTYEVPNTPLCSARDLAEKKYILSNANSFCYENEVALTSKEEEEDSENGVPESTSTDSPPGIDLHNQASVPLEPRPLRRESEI
- method: off-target blockade of inward rectifier Kir2.1 – cell-based, FluxOR thallium flux, HEK293, CRC, selectivity assay for TASK1 inhibitor project, SAR follow-up (AID 652190)
- particulars: Kir2.1-expressing cells; series mostly up to 30 µM
Active and inactive are the calls of the source.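 The calls were made as follows: active = peak inhibition above 30% at some tested dose, together with a fitted dose response curve; inactive = no inhibition at all doses, or no curve obtained.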

{"columns": ["given smiles", "outcome"],
 "data": [
  ["COc1ccc(F)cc1C(=O)Nc1cccc(NC(=O)c2cccc(C)c2)c1", "inactive"],
  ["CC(C)c1ccccc1C(=O)Nc1cccc(NC(=O)c2ccccc2OC(F)(F)F)c1", "inactive"],
  ["CC(C)Oc1ccccc1C(=O)Nc1cccc(NC(=O)c2ccccc2OC(F)(F)F)c1", "inactive"]
]}
